Test system: MCF7
ASSAY METHOD TEXT: Cytotoxicity against human MCF7 cells after 96 hrs by SRB colorimetric assay
Type: functional, cell-based
CONDITION CONTEXT: MCF7, 96 h
The reader will find reported IC50 values listed item by item below.

[[record]]
compound = "C=C(C)[C@@H]1CC[C@]2(C(=O)OCC(N)(CO)CO)CC[C@]3(C)[C@H](CC[C@@H]4[C@@]5(C)CC[C@H](O)C(C)(C)[C@@H]5CC[C@]43C)[C@@H]12"
observed = "> 100 µM"

[[record]]
compound = "C=C(C)[C@@H]1CC[C@]2(C(=O)O)CC[C@]3(C)[C@H](CC[C@@H]4[C@@]5(C)CCC(=O)C(C)(C)[C@@H]5CC[C@]43C)[C@@H]12 [BETUNOLIC ACID]"
observed = "10.4 µM"


Okay, now this compound:
For C=C(C)[C@@H]1CC[C@]2(C(=O)NC(CO)(CO)CO)CC[C@]3(C)[C@H](CC[C@@H]4[C@@]5(C)CC[C@H](O)C(C)(C)[C@@H]5CC[C@]43C)[C@@H]12 , what is its reported IC50?
> 100 µM

====

The reader will find reported IC50 values listed item by item below.
Tested on: HT-29
ASSAY METHOD TEXT: Cytotoxicity against human HT-29 cells after 96 hrs by SRB colorimetric assay
Assay type: functional, cell-based
CONDITION CONTEXT: HT-29, 96 h
Report only the number, with the unit µM understood.

Examples with answers:
[[record]]
molecule = "C=C(C)[C@@H]1CC[C@]2(C(=O)O)CC[C@]3(C)[C@H](CC[C@@H]4[C@@]5(C)CC[C@H](OC(C)=O)C(C)(C)[C@@H]5CC[C@]43C)[C@@H]12"
system_tested = "HT-29"
observed = 16.1

[[record]]
molecule = "C=C(C)[C@@H]1CC[C@]2(C(=O)OCC(N)(CO)CO)CC[C@]3(C)[C@H](CC[C@@H]4[C@@]5(C)CCC(=O)C(C)(C)[C@@H]5CC[C@]43C)[C@@H]12"
system_tested = "HT-29"
observed = 9.44


IC50 of C=C(C)[C@@H]1CC[C@]2(C(=O)O)CC[C@]3(C)[C@H](CC[C@@H]4[C@@]5(C)CCC(=O)C(C)(C)[C@@H]5CC[C@]43C)[C@@H]12 [BETUNOLIC ACID] on HT-29?
10

IC50 of C=C(C)[C@@H]1CC[C@]2(C(=O)OCC(N)(CO)CO)CC[C@]3(C)[C@H](CC[C@@H]4[C@@]5(C)CC[C@H](OC(C)=O)C(C)(C)[C@@H]5CC[C@]43C)[C@@H]12 on HT-29?
2.45

====

Test system: A-431
ASSAY METHOD TEXT: Cytotoxicity against human A431 cells after 96 hrs by SRB colorimetric assay
Format: functional, cell-based
CONDITION CONTEXT: A-431, 96 h
OUTCOME MEASURE: IC50 (µM)
Report only the number, with the unit µM understood.

Examples with answers:
[[record]]
compound_string = "C=C(C)[C@@H]1CC[C@]2(C(=O)O)CC[C@]3(C)[C@H](CC[C@@H]4[C@@]5(C)CC[C@H](OC(C)=O)C(C)(C)[C@@H]5CC[C@]43C)[C@@H]12"
observed = 10.7

[[record]]
compound_string = "C=C(C)[C@@H]1CC[C@]2(C(=O)NC(CO)(CO)CO)CC[C@]3(C)[C@H](CC[C@@H]4[C@@]5(C)CC[C@H](OC(C)=O)C(C)(C)[C@@H]5CC[C@]43C)[C@@H]12"
observed = 10.3

[[record]]
compound_string = "C=C(C)[C@@H]1CC[C@]2(C(=O)OCC(N)(CO)CO)CC[C@]3(C)[C@H](CC[C@@H]4[C@@]5(C)CCC(=O)C(C)(C)[C@@H]5CC[C@]43C)[C@@H]12"
observed = 10.1


For C=C(C)[C@@H]1CC[C@]2(C(=O)OCC(N)(CO)CO)CC[C@]3(C)[C@H](CC[C@@H]4[C@@]5(C)CC[C@H](O)C(C)(C)[C@@H]5CC[C@]43C)[C@@H]12 , what is its reported IC50?
3.61

====

The reader will find reported IC50 values listed item by item below.
Test system: SW-1736
ASSAY METHOD TEXT: Cytotoxicity against human SW1736 cells after 96 hrs by SRB colorimetric assay
Type: functional, cell-based
CONDITION CONTEXT: SW-1736, 96 h
Report only the number, with the unit µM understood.

Examples with answers:
[[record]]
compound_string = "C=C(C)[C@@H]1CC[C@]2(C(=O)NC(CO)(CO)CO)CC[C@]3(C)[C@H](CC[C@@H]4[C@@]5(C)CC[C@H](OC(C)=O)C(C)(C)[C@@H]5CC[C@]43C)[C@@H]12"
outcome_measure = "IC50"
display_unit = "µM"
observed = 10.2

[[record]]
compound_string = "C=C(C)[C@@H]1CC[C@]2(C(=O)OCC(N)(CO)CO)CC[C@]3(C)[C@H](CC[C@@H]4[C@@]5(C)CCC(=O)C(C)(C)[C@@H]5CC[C@]43C)[C@@H]12"
outcome_measure = "IC50"
display_unit = "µM"
observed = 10.1

[[record]]
compound_string = "C=C(C)[C@@H]1CC[C@]2(C(=O)O)CC[C@]3(C)[C@H](CC[C@@H]4[C@@]5(C)CC[C@H](OC(C)=O)C(C)(C)[C@@H]5CC[C@]43C)[C@@H]12"
outcome_measure = "IC50"
display_unit = "µM"
observed = 7.3

[[record]]
compound_string = "C=C(C)[C@@H]1CC[C@]2(C(=O)OCC(N)(CO)CO)CC[C@]3(C)[C@H](CC[C@@H]4[C@@]5(C)CC[C@H](OC(C)=O)C(C)(C)[C@@H]5CC[C@]43C)[C@@H]12"
outcome_measure = "IC50"
display_unit = "µM"
observed = 3.73


For C=C(C)[C@@H]1CC[C@]2(C(=O)O)CC[C@]3(C)[C@H](CC[C@@H]4[C@@]5(C)CCC(=O)C(C)(C)[C@@H]5CC[C@]43C)[C@@H]12 , what is its reported IC50?
3.05

====

Tested on: MCF7
ASSAY METHOD TEXT: Cytotoxicity against human MCF7 cells after 96 hrs by SRB colorimetric assay
Assay type: functional, cell-based
CONDITION CONTEXT: MCF7, 96 h
OUTCOME MEASURE: IC50 (µM)
Report only the number, with the unit µM understood.

Examples with answers:
[[record]]
compound_string = "C=C(C)[C@@H]1CC[C@]2(C(=O)OCC(N)(CO)CO)CC[C@]3(C)[C@H](CC[C@@H]4[C@@]5(C)CC[C@H](OC(C)=O)C(C)(C)[C@@H]5CC[C@]43C)[C@@H]12"
system_tested = "MCF7"
display_unit = "µM"
observed = 2.76

[[record]]
compound_string = "C=C(C)[C@@H]1CC[C@]2(C(=O)OCC(N)(CO)CO)CC[C@]3(C)[C@H](CC[C@@H]4[C@@]5(C)CCC(=O)C(C)(C)[C@@H]5CC[C@]43C)[C@@H]12"
system_tested = "MCF7"
display_unit = "µM"
observed = 10.6

[[record]]
compound_string = "C=C(C)[C@@H]1CC[C@]2(C(=O)O)CC[C@]3(C)[C@H](CC[C@@H]4[C@@]5(C)CC[C@H](OC(C)=O)C(C)(C)[C@@H]5CC[C@]43C)[C@@H]12"
system_tested = "MCF7"
display_unit = "µM"
observed = 11.1


Okay, now this compound:
For C=C(C)[C@@H]1CC[C@]2(C(=O)NC(CO)(CO)CO)CC[C@]3(C)[C@H](CC[C@@H]4[C@@]5(C)CC[C@H](OC(C)=O)C(C)(C)[C@@H]5CC[C@]43C)[C@@H]12 , what is its reported IC50?
29.4

====

The reader will find reported pIC50 values listed item by item below.
Test system: SW-1736
ASSAY METHOD TEXT: Cytotoxicity against human SW1736 cells after 96 hrs by SRB colorimetric assay
Format: functional, cell-based
CONDITION CONTEXT: SW-1736, 96 h
pIC50: −log10 of the molar value.

Examples with answers:
[[record]]
compound_string = "C=C(C)[C@@H]1CC[C@]2(C(=O)OCC(CO)CO)CC[C@]3(C)[C@H](CC[C@@H]4[C@@]5(C)CC[C@H](O)C(C)(C)[C@@H]5CC[C@]43C)[C@@H]12"
outcome_measure = "pIC50"
observed = "< 4.00"

[[record]]
compound_string = "C=C(C)[C@@H]1CC[C@]2(C(=O)NC(CO)(CO)CO)CC[C@]3(C)[C@H](CC[C@@H]4[C@@]5(C)CC[C@H](O)C(C)(C)[C@@H]5CC[C@]43C)[C@@H]12"
outcome_measure = "pIC50"
observed = "< 4.00"


Okay, now this molecule:
For C=C(C)[C@@H]1CC[C@]2(C(=O)OCC(N)(CO)CO)CC[C@]3(C)[C@H](CC[C@@H]4[C@@]5(C)CC[C@H](O)C(C)(C)[C@@H]5CC[C@]43C)[C@@H]12 , what is its reported pIC50?
< 4.00
